assayNotes: gradient 5% acetonitrile 3 min, to 50% in 2 min, to 85% in 15 min, held 3 min, 100 µL/min
conditionsUsed: column: Zorbax Extend-C18 2.1 x 50 mm; eluents: water / acetonitrile, 0.1% formic acid
reportedProperty: RP-LC retention time (s)
Form entry: value (s) — number only.

Look at this compound and give its reported RP-LC retention time. CCc1ccc(N2C(=O)C3N=NN(c4cccc(OC)c4)C3C2=O)cc1 (stereo not given) 1020

Quick one: `C=CCn1c(C)c(CC(=O)NC2CCCC2)c(=O)n2nc(-c3ccccc3)nc12` 684

Now try Cc1cc(NC(=O)C(C)C2CCN(C(=O)Nc3ccc(Cl)cc3)CC2)ccc1F (stereo not given) . 952

Then `O=C(NCc1ccc(F)c(Cl)c1)C1CCN(c2nnc3ccccn23)CC1` ? 686

Then what about the compound `Cn1c(C2CCN(S(=O)(=O)c3ccc(F)c(Cl)c3)CC2)cc(=O)n2nccc12` ? 722

Further, for Cc1noc2ncnc(N3CCCC(C(=O)N4CCN(c5ccc(Cl)cc5)CC4)C3)c12 (stereo not given) ? 931

Thanks! And `CCCn1cc(CCNS(=O)(=O)c2ccccc2F)c2cccnc21` ? 820

And then Cc1ccc(C2c3[nH]c4ccccc4c3CCN2C(=O)c2ccnn2C)cc1 (stereo not given) , what is it? 673

Entry to check: `COC(=O)c1ccccc1NC(=O)CSc1nc2ccccc2s1` 1030

Would you kindly repeat that for `CCc1nc(-c2cc(S(=O)(=O)NCC(=O)NC3CCCCC3)c(C)s2)no1` ? 906

Also `COc1ccc(NC(=O)N2CCC3(CC2)NC(=O)c2ccccc2O3)c(OC)c1` ? 728

Entry `CCCn1nnnc1NCc1ccc(-c2ccc(Br)cc2)o1` please 957

Could you do the same for `CCc1ccc(-c2noc(Cn3c(=O)n(Cc4cccc(OC)c4)c(=O)c4sccc43)n2)cc1` , please? 1170

Repeat for the following compound: `CCn1ncc(NC(=O)c2cccc(F)c2)c(N2CCOCC2)c1=O` 788

Then this compound: CCN(CC)c1ccc(NC(=O)C2C(=O)NC3(C)CC2c2ccccc2O3)c(C)c1 (stereo not given) 640

Next compound up: `COc1ccc(-c2noc(Cc3nnc(-c4ccc(C)c(C)c4)o3)n2)cc1OC` 997

Would you mind doing `O=S(=O)(NC1CCCCC1)c1ccc2c(c1)-c1oncc1CO2` as well? 673

Also `CN1CCN(CCc2ccc(Cl)c(Cl)c2)CC1` ? 668

And then Cc1cnc(CC2CCN(S(=O)(=O)c3ccc(C#N)cc3)C2)n1C1CC1 (stereo not given) , what is it? 654

Try `CC(C)S(=O)(=O)N1CCC2(CC1)NCCCN=C2Nc1cccc(F)c1` next. 638

Okay, and `O=C(Cc1ccsc1)Nc1cnc(-c2ccccc2)nc1` ? 890

Another compound to look at: COc1cc(CNC(=O)C2CCCN(c3nccnc3Sc3ccc(C)cc3)C2)cc(OC)c1 (stereo not given) 1060

Entry to check: `CCOc1ccccc1-c1noc(Cn2c(=O)n(Cc3ccccc3Cl)c(=O)c3sccc32)n1` 1160

Queued: `O=C(NCC(=O)N1CCN(c2ccccn2)CC1)c1cc2ccccc2[nH]1` 600

Query Cc1ccc(S(=O)(=O)N2CCC(CC(=O)NC(C)c3ccccc3)CC2)cc1 (stereo not given) next 917

Same read-out for `CCCCN(CC)CCNC(=O)C1CCN(c2ncnc3onc(C)c23)CC1` ? 598

Try this compound too: `CCOc1ccc(NS(=O)(=O)c2cc(-c3c(CC)noc3NC(C)=O)ccc2OC)cc1` 791

Entry to check: `CC(C)(C)NC(=O)N1CCC(CNC(=O)CSCc2ccccc2)CC1` 735

Quick one: `Cc1ccc(-n2c(=O)n(C)c(=O)c3cc(C(=O)Nc4ccccc4)cnc32)cc1` 926

Param item: `COc1cc(OC)cc(C(=O)N2C[C@@H]3C[C@H](NC(=O)c4ccccc4)[C@H]2C3)c1` 684

Record: `COc1cccc(Cn2nnc(C(=O)O)c2-c2cccc(OC)c2)c1` 782

Record: `CCCc1cc(N2CCN(c3ccccn3)CC2)n2nc3nc(C)cc(C)c3c2n1` 615

Try the compound `CCOc1ccc(-c2cn3ccn(-c4ccc(Br)cc4)c(=O)c3n2)cc1` 931

`O=C(Cc1csc2ccccc12)N1CCN(C(=O)Nc2ccccc2Cl)CC1` ? 889

What do you have for `CCOc1cccc(-c2noc(CCn3nc(-c4ccc(Cl)cc4)ccc3=O)n2)c1` ? 1130
